- Test Summary: qHTS of pediatric cancer cell lines to identify multiple opportunities for drug repurposing: Confirmatory screen for RD cells (AID 1347124);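 further: cells exposed to compound for 48 h before viability readout; nearly all actives have a fitted effect of over 65% in size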
- Test Settings: RD rhabdomyosarcoma cell viability; series mostly up to 45.9 µM
Records with an inconclusive call do not appear. Activity calls are given as the source filed them. The call rests on the fitted dose curve; in most records, active means well fitted cell-killing curve with a large enough effect; inconclusive means small, poorly fitted or top-dose-only effect, or effect the other way; inactive means no such curve, though single readings can be large or run the other way.
Labels: yes (1) for active, no (0) for inactive

{"columns": ["Compound", "Class"],
 "data": [
  ["COc1cc2ncnc(Nc3cc(Br)c(O)c(Br)c3)c2cc1OC", "no (0)"],
  ["CCC(c1ccc(O)cc1)C(CC)c1ccc(O)cc1 (stereo not drawn)", "yes (1)"],
  ["CC(=O)N1CCN(c2ccc(OCc3nn(C)c(C)c3-c3cccc4c(CCCOc5cc(C)c(Cl)c(C)c5)c(C(=O)O)n(Cc5cccnc5)c34)cc2)CC1", "no (0)"],
  ["Cc1csc(-c2nnc(Nc3ccc(Oc4ncccc4-c4ccnc(N)n4)cc3)c3ccccc23)c1", "no (0)"],
  ["CN(C)CCN(C)C(=O)c1ccc(NC(=O)Nc2ccc(-c3nc(N4CCOCC4)c4ccn(CC(F)(F)F)c4n3)cc2)cc1", "yes (1)"],
  ["Cc1ccc2c(c1)C(=O)[C@]1(O)CCN(c3ccccc3)C1=N2", "no (0)"],
  ["Cc1cc(CS(=O)(=O)c2ccccc2)cc(OCc2ccc(CN3CCC[C@H]3CO)cc2)c1", "no (0)"],
  ["O=C1NC(=O)C(c2cnc3ccccn23)=C1c1cn2c3c(cccc13)CN(C(=O)N1CCOCC1)CC2", "no (0)"],
  ["C=CC(=O)Nc1cccc(Sc2nc(Nc3ccc(N4CCN(C)CC4)cc3)ncc2Cl)c1", "yes (1)"],
  ["C[C@@H]1C[C@H]2[C@@H]3CCC4=CC(=O)C=C[C@]4(C)[C@@]3(F)[C@@H](O)C[C@]2(C)[C@@]1(O)C(=O)CO", "no (0)"],
  ["CC1C(=O)OC2C(O)C34C5CC(C(C)(C)C)C36C(OC(=O)C6O)OC4(C(=O)O5)C12O (stereo not drawn)", "no (0)"],
  ["COc1cc(CNC(=O)CCCCC=CC(C)C)ccc1O", "no (0)"],
  ["COc1ccc(-c2ccc3ncc4c(c3c2)n(-c2ccc(N3CCNCC3)c(C(F)(F)F)c2)c(=O)n4C)cn1", "yes (1)"]
]}

----------
- Test Summary: High-throughput drug toxicity screening in the BPDCN cell line Cal-1 (AID 1224825);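 further: cells exposed to compounds for 48 h; 100% = DMSO and 0% = bortezomib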
- Test Settings: Cal-1 BPDCN cell viability, qHTS; at 45.8 µM (top of the series) unless noted
- Source text: Blastic plasmacytoid dendritic cell neoplasm (BPDCN) is a rare, aggressive and largely incurable hematologic malignancy originating from plasmacytoid dendritic cells (pDCs). Although an initial response to chemotherapy is common, BPDCN prognosis is extremely poor and most patients relapse with drug-resistant disease leading to a median overall survival of ~1 year after diagnosis. […]
Measured viability (% of control) by item

{"columns": ["Compound", "viability (% of control), %"],
 "data": [
  ["OC[C@H]1O[C@@H](OCCc2ccc(O)cc2)[C@H](O)[C@@H](O)[C@H]1O", 96.6],
  ["Cc1ccc(C(=O)N(CCCN)[C@@H](c2oc3cc(Cl)ccc3c(=O)c2Cc2ccccc2)C(C)C)cc1", 3.72],
  ["Cn1cnc(-c2cc3nccc(Oc4ccc(NC(=S)NC(=O)Cc5ccccc5)cc4F)c3s2)c1", 8.37],
  ["CN(C)CCOc1ccc(C(=C(CCCl)c2ccccc2)c2ccccc2)cc1", 111],
  ["CN1[C@H]2CC[C@H]1CC(OC(=O)c1c[nH]c3ccccc13)C2 (stereo not given in full)", 111],
  ["Cn1cc(-c2ccc3nnc(Sc4ccc5ncccc5c4)n3n2)cn1", 102],
  ["CCC[C@H](N[C@@H](C)C(=O)N1[C@@H]2CCCC[C@H]2C[C@H]1C(=O)O)C(=O)OCC", 104],
  ["N#CC1(c2cccc(C(=O)Nc3cc(Oc4ccc5nc(NC(=O)C6CC6)sc5n4)ccc3F)c2Cl)CC1", 43.3],
  ["C[C@H]1COC2=C1C(=O)C(=O)c1c2ccc2c1CCCC2(C)C", 56.6],
  ["COc1cc2ncnc(Nc3cc(Br)c(O)c(Br)c3)c2cc1OC", 11],
  ["COc1ccnc(CS(=O)c2nc3ccc(OC(F)F)cc3[nH]2)c1OC (stereo not given)", 108],
  ["CC(C)(F)C[C@H](N[C@@H](c1ccc(-c2ccc(S(C)(=O)=O)cc2)cc1)C(F)(F)F)C(=O)NC1(C#N)CC1", 99.1],
  ["COc1cc([C@H]2Oc3cc([C@H]4Oc5cc(O)cc(O)c5C(=O)[C@H]4O)ccc3O[C@H]2CO)ccc1O", 85.4],
  ["COc1ccc(C=CC(=O)Nc2ccccc2C(=O)O)cc1OC", 104],
  ["Cc1nc2c([nH]1)CCN(C(=O)c1ccc(NC(=O)c3ccccc3-c3ccccc3)cc1)c1ccccc1-2", 55.1]
]}

Source: PubChem BioAssay (NCATS)
